# Test system: Aspergillus fumigatus
# assay_summary: Antifungal activity against Aspergillus fumigatus 231 after 24 hrs by microdilution broth assay
# Type: functional
# condition_set: Aspergillus fumigatus, 231, 24 h
Entries annotated with measured MIC50

# annotated cases, reported MIC50 shown
>>> assay_value("OC(Cn1cncn1)(Cn1cncn1)c1ccc(F)cc1F [FLUCONAZOLE]")
"> 500 µM"
>>> assay_value("O=C(O)CN1C(=O)/C(=C/c2ccc(O)cc2)SC1=S")
"> 500 µM"
>>> assay_value("O=C(O)CN1C(=O)/C(=C/c2ccccn2)SC1=S")
"≥ 0.98 µM"
>>> assay_value("O=C(CN1C(=O)CSC1=S)Nc1ccccc1")
"> 500 µM"
>>> assay_value("O=C(CN1C(=O)CSC1=S)Oc1ccc(C(F)(F)F)cc1")
"> 500 µM"

What measured MIC50 is associated with `O=C(CN1C(=O)CSC1=S)Oc1ccc(Cl)cc1` on Aspergillus fumigatus?
> 500 µM
